The measured values listed here are drawn from patent US8952034B2.

# target entity: wild-type human cardiac sodium channel, hNav1.5 (Homo sapiens)
# Sequence (Q14524 whole entry): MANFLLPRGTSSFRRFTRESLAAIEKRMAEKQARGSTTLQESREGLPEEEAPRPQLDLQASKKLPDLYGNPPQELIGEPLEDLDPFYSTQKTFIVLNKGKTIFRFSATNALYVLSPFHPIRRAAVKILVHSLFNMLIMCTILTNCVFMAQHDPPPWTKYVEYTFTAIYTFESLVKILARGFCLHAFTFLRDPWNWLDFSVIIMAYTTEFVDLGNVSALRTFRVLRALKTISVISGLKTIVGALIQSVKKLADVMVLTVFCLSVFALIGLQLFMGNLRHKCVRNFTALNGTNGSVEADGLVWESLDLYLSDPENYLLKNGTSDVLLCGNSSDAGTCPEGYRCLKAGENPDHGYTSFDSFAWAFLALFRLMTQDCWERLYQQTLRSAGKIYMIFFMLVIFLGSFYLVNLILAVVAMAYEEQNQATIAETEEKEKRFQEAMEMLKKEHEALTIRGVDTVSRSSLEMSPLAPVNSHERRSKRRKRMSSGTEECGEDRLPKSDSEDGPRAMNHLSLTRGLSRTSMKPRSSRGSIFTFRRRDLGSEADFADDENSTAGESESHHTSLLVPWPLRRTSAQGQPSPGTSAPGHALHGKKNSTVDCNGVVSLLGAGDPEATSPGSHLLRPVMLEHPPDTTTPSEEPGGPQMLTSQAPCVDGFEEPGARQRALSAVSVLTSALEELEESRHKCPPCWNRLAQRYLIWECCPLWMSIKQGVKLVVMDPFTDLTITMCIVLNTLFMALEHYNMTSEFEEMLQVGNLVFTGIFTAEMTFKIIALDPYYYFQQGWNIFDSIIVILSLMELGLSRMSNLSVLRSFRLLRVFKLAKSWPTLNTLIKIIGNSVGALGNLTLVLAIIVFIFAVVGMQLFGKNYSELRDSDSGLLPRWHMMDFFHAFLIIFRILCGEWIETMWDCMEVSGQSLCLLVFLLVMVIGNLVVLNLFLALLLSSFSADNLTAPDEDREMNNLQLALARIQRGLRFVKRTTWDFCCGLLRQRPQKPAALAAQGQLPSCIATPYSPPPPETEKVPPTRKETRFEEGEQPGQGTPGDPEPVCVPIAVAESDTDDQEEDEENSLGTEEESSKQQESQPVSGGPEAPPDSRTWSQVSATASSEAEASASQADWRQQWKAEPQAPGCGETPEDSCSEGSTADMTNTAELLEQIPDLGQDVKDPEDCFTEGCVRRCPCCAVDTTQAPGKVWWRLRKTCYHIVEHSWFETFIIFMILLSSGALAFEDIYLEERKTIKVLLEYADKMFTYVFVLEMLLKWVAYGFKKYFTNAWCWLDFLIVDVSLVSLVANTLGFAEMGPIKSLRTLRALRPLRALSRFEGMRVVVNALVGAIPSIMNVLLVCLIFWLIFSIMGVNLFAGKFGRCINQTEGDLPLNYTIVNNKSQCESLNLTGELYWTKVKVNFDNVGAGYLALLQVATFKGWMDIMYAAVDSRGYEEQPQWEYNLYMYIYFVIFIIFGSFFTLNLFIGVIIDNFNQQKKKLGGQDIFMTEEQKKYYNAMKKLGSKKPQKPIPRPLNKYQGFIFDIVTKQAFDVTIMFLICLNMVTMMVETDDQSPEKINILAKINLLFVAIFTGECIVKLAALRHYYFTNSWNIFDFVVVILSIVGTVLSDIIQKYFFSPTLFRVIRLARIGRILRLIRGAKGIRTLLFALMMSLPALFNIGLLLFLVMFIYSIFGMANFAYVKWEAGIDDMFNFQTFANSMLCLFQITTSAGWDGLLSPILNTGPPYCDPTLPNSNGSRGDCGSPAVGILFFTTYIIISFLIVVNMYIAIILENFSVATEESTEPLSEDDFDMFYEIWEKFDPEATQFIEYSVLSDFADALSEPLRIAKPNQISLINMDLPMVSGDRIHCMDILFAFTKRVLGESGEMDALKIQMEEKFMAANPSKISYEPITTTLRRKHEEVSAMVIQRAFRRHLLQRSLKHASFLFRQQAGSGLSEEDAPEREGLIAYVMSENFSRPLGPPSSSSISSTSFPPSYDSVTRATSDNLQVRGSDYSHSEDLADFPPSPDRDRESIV
# procedure summary: Late INa screening assay (automated whole cell patch clamp, PatchXpress)
# Format: cell-based
# assay conditions: compound at 10 μM; HEK293 cells expressing hNav1.5; late INa generated with 10 μM Tefluthrin (or 50 nM ATX II); read-out: LateINa_10 uM (percent block of late INa)
# Experimental: The late sodium current (Late INa) and peak sodium current (Peak INa) assays are performed on an automated electrophysiology platform, PatchXpress 7000A (MDS Analytical Technologies, Sunnyvale, Calif.), which uses the whole cell patch clamp technique to measure currents through the cell membrane of up to 16 cells at a time. […]
Classes based on inhibition at 10 µM: bottom range: < 30%; center range: ≥ 30% and < 70%; top range: ≥ 70%

Req: Sort Fc1cc(-c2ccc3nnc(C(F)(F)F)n3c2)ccc1Cl [BHN-14] into one of the categories.
Resp: bottom range
